Item-by-item account of IC50
ASSAYED TARGET: yeast α-glucosidase (Saccharomyces cerevisiae, UniProt P53341)
Sequence (P53341 whole entry): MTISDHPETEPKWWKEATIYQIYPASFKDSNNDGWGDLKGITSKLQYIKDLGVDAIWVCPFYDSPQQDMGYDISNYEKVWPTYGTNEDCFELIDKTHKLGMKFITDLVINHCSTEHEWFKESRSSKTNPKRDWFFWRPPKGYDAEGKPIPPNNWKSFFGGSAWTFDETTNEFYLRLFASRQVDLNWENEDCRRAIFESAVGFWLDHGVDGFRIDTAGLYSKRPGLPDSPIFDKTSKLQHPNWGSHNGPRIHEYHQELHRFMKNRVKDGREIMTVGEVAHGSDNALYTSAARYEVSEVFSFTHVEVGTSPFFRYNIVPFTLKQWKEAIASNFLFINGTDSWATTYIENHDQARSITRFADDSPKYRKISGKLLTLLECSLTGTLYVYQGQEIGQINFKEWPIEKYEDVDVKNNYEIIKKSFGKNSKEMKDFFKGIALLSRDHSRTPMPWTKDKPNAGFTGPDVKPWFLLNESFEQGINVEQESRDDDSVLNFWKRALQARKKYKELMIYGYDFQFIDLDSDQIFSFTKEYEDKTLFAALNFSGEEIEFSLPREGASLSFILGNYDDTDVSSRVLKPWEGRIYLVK
TEST DETAILS: biochemical
Assay type: biochemical
REPORTED CONDITIONS: read-out: IC50 (anti-α-glucosidase activity)
Value expressed in µM; do not type the unit.

COMPOUND	ASSAYED TARGET	IC50, µM
Cc1ccc(NC(=O)Cn2cc(COc3ccc(/C=N/NC(=O)c4cc5ccccc5[nH]4)cc3)nn2)cc1 [Compound 11c]	yeast α-glucosidase (Saccharomyces cerevisiae, UniProt P53341)	19.1

Ask: So what does the record say about IC50 for O=C(Cn1cc(COc2ccc(/C=N/NC(=O)c3cc4ccccc4[nH]3)cc2)nn1)Nc1ccc(Cl)cc1 [Compound 11f] ?
Result: 9.53

Ask: So what does the record say about IC50 for COc1cc(/C=N/NC(=O)c2cc3ccccc3[nH]2)ccc1OCc1cn(CC(=O)Nc2ccc(Br)cc2)nn1 [Compound 11n] ?
Result: 8.3
